Biological target: T1, 4H355-AA
T1 chain: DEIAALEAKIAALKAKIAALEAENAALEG
Test: two-hybrid library CCmax;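 also: natural log of median RNA to DNA barcode read ratio; higher means stronger binding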
Conditions: mean of both orientations
Give measured interaction score for each item. Keep answers brief.
The answer should be a number; do not append a unit.

**Q:** # lookup: interaction score of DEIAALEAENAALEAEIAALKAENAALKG [4H140-AA]
**A:** -1.06

**Q:** I'd like to know its interaction score. The binder in question is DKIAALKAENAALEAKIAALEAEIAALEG [4H2721-AA]
**A:** -0.56

**Q:** interaction score for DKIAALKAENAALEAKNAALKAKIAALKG [4H2750-AA] ?
**A:** -0.643

**Q:** // query interaction score value for entry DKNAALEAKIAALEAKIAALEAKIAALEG [4H3365-AA]
**A:** -0.823

**Q:** What measured interaction score goes with DKIAALKAKNAALKAEIAALKAENAALKG [4H3020-AA] ?
**A:** -1.86

**Q:** Item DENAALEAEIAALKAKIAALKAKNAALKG [4H1136-AA] has what recorded interaction score?
**A:** 0.718

**Q:** For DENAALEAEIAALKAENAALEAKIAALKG [4H1110-AA] , what is its reported interaction score?
**A:** -0.0666
